Value source: patent US20140249105A1

# Tested on: B16 melanocytes
# run description: Viability of the cells, test of reduction of MTT
# Format: cell-based
# assay conditions: 72 h; 30 μM
measurement label: Viability (MTT) % stimulated control (% stimulated control)
Please state the figure in % stimulated control; there is no need to write the unit.

// worked examples, Viability (MTT) % stimulated control included
* O=C(NC1CCC(NC(=O)C(F)=CCCCCCO)C1)C(F)=CCCCCCO (racemic) [c115] | 94
* O=C(N[C@@H]1CC[C@H](NC(=O)/C(F)=C\CCCCCOC2CCCCO2)C1)/C(F)=C\CCCCCOC1CCCCO1 (some centres unmarked) [c106] | 73
* O=C(N[C@@H]1CC[C@H](NC(=O)/C(F)=C/CCCCCCCOC2CCCCO2)C1)/C(F)=C/CCCCCCCOC1CCCCO1 (some centres unmarked) [c68] | 64
* O=C(N[C@H]1CCC[C@H]1NC(=O)/C(F)=C\CCCCCCCCOC1CCCCO1)/C(F)=C\CCCCCCCCOC1CCCCO1 (some centres unmarked) [c72] | 102
* O=C(NC1CC1NC(=O)C(F)=CCCCCCOC1CCCCO1)C(F)=CCCCCCOC1CCCCO1 (mixture of isomers) [c108] | 75

The compound identified as O=C(NC1CCC(NC(=O)C(F)=CCCCCCCCCCCCO)C1)C(F)=CCCCCCCCCCCCO (centres unmarked) [c60] registered its Viability (MTT) % stimulated control at 105

Value of measured Viability (MTT) % stimulated control for the entry O=C(NC1CCC(NC(=O)C(F)=CCCCCCCCOC2CCCCO2)C1)C(F)=CCCCCCCCOC1CCCCO1 (mixture of isomers) [c69] : 87

Field Viability (MTT) % stimulated control (entry O=C(O)C(F)=CCCCCCCCCCCCO [Ref 4, reference compound] ) reads 114
